Tested on: A549 cells
EXPERIMENT_SUMMARY: Proliferation rate of A549 cells with added single nucleoside/base
Type: cell-based, human
REPORTED_CONDITIONS: Homo sapiens, A549, read-out: Added nucleoside/base concentration that slows proliferation by half
QUANTITY_NAME: pIC50
One number for each entry, as −log10 of the molar value.

Task: Entry under review: Nc1nc2nc[nH]c2c(=O)[nH]1 [G, guanine] . Reported pIC50?
Result: 4.10

* * *

Tested on: MDA-MB-468 cells
EXPERIMENT_SUMMARY: Proliferation rate of MDA-MB-468 cells with added single nucleoside/base
Assay type: cell-based
REPORTED_CONDITIONS: Homo sapiens; MDA-MB-468 cells; approximate concentration; read-out: Added nucleoside/base concentration that slows proliferation by half
QUANTITY_NAME: pIC50
One number for each entry, as −log10 of the molar value.

# count of solved cases: 2
Task: Entry under review: Nc1ncnc2c1ncn2[C@@H]1O[C@H](CO)[C@@H](O)[C@H]1O [A, adenosine] . Reported pIC50?
Result: 3.10

Task: Next record, please: Cc1cn([C@H]2C[C@H](O)[C@@H](CO)O2)c(=O)[nH]c1=O [T, thymidine]
Result: 3.82

# ---- query compound ----
Task: Entry under review: Nc1ncnc2c1ncn2[C@H]1C[C@H](O)[C@@H](CO)O1 [dA, deoxyadenosine] . Reported pIC50?
Result: 3.65

* * *

Hi there, I'd appreciate the recorded IC50 for every entry that follows.
Tested on: U2OS cells
EXPERIMENT_SUMMARY: Proliferation rate of U2OS cells with added single nucleoside/base
Type: cell-based
REPORTED_CONDITIONS: Homo sapiens; U2OS cells; approximate concentration; read-out: Added nucleoside/base concentration that slows proliferation by half
Experimental: This effect was dose-titratable over a 0.1 mM to 2.0 mM range, with increasing concentrations of multiple single nucleotides completely preventing cell proliferation. In Table 1, the approximate concentration of each nucleotide that when added slows the proliferation of the indicated cells by half is shown. All adherent and human leukemia cell lines were cultured in DMEM or RPMI supplemented with 10% heat inactivated fetal bovine serum at 37° C. with 5% CO2. […]
One number for each entry, in µM.

Task: Entry under review: Cc1cn([C@H]2C[C@H](O)[C@@H](CO)O2)c(=O)[nH]c1=O . Reported IC50?
Result: 500

Task: Next record, please: Nc1ncnc2c1ncn2[C@H]1C[C@H](O)[C@@H](CO)O1
Result: 600

# ---- query molecule ----
Task: Entry under review: Nc1ncnc2c1ncn2[C@@H]1O[C@H](CO)[C@@H](O)[C@H]1O . Reported IC50?
Result: 950

* * *

Test system: U2OS cells
EXPERIMENT_SUMMARY: Proliferation rate of U2OS cells with added single nucleoside/base
Format: cell-based
REPORTED_CONDITIONS: Homo sapiens, U2OS, read-out: Added nucleoside/base concentration that slows proliferation by half
QUANTITY_NAME: IC50 (µM)
Answers are plain numbers, in µM.

Task: IC50 of Nc1nc2nc[nH]c2c(=O)[nH]1 on U2OS cells?
Result: 250
